test system: Rattus norvegicus; assay: Drug level in complete Freund's adjuvant-induced hypersensitivity rat blood at 1 mg/kg, po; type: ADME, organism-based; parameters: dose 1 mg/kg, route oral; settings: in vivo, read-out: Drug uptake
test_readout: concentration (nM)
Numbers only, in nM.

Request: // lookup concentration for CC(C)Cc1cn(-c2cccc(C(=O)[O-])n2)c2cc(Cl)ccc12.[Na+]
Response: 440
